Assay summary: Cytotoxicity against human MT2 cells
Type: toxicity, cell-based
Bridge positions count the residues as written; N and C are the ends. Square brackets hold non-standard residues; d marks the D form. Peptide text beside a SMILES is read from it. S5 = C=CCCC[C@](C)(N)C(=O)O
Quantity name: CC50
A complete answer gives the number followed by the unit.

Q: Name the reported CC50 value associated with the compound CC(=O)N[C@@]1(C)CCC/C=C\CCC[C@@](C)(C(=O)N[C@@H](CCCCN)C(=O)N[C@@H](Cc2ccc(O)cc2)C(=O)N[C@@H](CC(C)C)C(=O)N[C@@H](Cc2c[nH]c3ccccc23)C(=O)N[C@@H](CC(N)=O)C(=O)N[C@@H](CC(C)C)C(=O)N[C@@H](CC(C)C)C(=O)N[C@@H](CCC(N)=O)C(=O)N[C@@H](Cc2ccc(O)cc2)C(=O)N[C@@H](Cc2c[nH]c3ccccc23)C(N)=O)NC(=O)[C@H](C)NC(=O)[C@H](CCC(=O)O)NC(=O)[C@H](Cc2c[nH]c3ccccc23)NC1=O (Ac-[S5]WEA[S5]KYLWNLLQYW-NH2; staple (Z) 1-5)
Ans: 2.67 µM
